assayed_system: AtSPT-ORM1 complex (LCB1, LCB2a, SPTssa, ORM1) (Arabidopsis thaliana, UniProt Q94IB8+Q9C5I0+Q9LSZ9, Q9C5I0:N17A)
Construct: full-length codon-optimized cDNAs; N-terminal Flag on SPTssa, other chains untagged; HEK293F, GDN; dimer of 1:1:1:1 protomers; endogenous ceramide copurifies; with Long chain base biosynthesis protein 1; Serine palmitoyltransferase small subunit A
Sequence (Q9LSZ9 whole entry): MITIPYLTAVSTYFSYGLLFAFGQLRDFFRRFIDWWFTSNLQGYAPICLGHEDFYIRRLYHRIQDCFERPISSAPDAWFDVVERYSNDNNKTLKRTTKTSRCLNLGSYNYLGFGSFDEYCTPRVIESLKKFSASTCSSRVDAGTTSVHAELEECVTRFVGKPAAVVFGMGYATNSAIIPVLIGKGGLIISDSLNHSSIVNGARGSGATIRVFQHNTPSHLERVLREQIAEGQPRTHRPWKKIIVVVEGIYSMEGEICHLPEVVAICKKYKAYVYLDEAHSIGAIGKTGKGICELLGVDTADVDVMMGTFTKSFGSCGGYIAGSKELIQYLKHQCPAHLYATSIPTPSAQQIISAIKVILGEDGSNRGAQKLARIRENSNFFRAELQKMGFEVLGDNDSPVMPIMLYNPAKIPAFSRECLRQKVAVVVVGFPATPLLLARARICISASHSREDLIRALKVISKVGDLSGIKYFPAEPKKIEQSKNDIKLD
Sequence (Q9C5I0 1-157 N17A): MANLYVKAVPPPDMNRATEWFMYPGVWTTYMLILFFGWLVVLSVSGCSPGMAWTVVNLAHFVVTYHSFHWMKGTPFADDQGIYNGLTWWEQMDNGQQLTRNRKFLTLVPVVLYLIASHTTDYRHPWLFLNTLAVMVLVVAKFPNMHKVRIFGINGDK
Sequence (Q94IB8 whole entry): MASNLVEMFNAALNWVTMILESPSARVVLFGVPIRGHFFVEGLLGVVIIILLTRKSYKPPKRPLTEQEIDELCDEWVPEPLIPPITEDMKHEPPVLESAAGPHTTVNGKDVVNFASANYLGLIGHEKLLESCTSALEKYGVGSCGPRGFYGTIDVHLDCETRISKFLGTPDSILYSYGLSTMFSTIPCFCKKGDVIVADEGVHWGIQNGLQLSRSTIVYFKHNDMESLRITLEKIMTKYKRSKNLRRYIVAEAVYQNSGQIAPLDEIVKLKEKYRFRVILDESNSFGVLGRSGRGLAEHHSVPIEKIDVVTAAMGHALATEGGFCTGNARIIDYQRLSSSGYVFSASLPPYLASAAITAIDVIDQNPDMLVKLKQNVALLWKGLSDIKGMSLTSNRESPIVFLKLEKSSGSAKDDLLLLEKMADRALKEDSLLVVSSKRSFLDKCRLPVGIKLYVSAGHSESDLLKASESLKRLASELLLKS
Sequence (A8MSB8 1-56 partner): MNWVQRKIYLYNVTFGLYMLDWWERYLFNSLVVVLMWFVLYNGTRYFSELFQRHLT
protocol_description: SPT activity, DTNB detection of CoA-SH release, […] nm
readout_name: pIC50
Formally, pIC50 is defined as -log10 of the concentration c, with c in mol/L.

The compound listed as CCCCCCCCCCCCCC[C@@H](O)[C@@H](O)[C@H](CO)NC(=O)CCCCC [C6-phytoceramide] has a reported pIC50 of 5.77
